EXPERIMENTAL SYSTEM: Bcl-xL, Q07817
Sequence (Q07817 1-209): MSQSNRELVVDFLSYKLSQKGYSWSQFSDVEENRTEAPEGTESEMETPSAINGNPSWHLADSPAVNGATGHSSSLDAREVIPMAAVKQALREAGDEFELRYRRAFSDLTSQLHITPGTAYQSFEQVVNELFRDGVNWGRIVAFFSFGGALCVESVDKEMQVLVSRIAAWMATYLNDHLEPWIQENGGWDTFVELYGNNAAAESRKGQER
MEASUREMENT NOTES: peptide SPOT array, c-Myc-tagged receptor at 1 uM or 100 nM, anti-c-Myc-Cy3
PROPERTY MEASURED: SPOT signal as a fraction of Bim BH3's signal on the same receptor and array

LFWTPLLVVLLAGLGDTEAQQTTLHP [SGCA] = 0.06

[a] IQRMGKYALLLQELARACGGPTQELS [PLEKHG4]
[b] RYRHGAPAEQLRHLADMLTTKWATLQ [PLEKHH1]
[c] QLSKPGAALYDQSIGEGFKEAVQYVL [SOS1]
query: Sort ascending by SPOT signal as a fraction of Bim BH3's signal on the same receptor and array. Arrange the labels as the request states and list them.
result: c, a, b
(c: 0.02, a: 0.08, b: 1.44)

Hey, just so you know, these numbers are from paper PMC4072508.
